Molecular target: VIM-1 (Pseudomonas aeruginosa (strain ATCC 15692 / DSM 22644 / CIP 104116 / JCM 14847 / LMG 12228 / 1C / PRS 101 / PAO1), UniProt A0A0F7KYQ8)
Experiment: biochemical
Conditions: fluorescence assay, CCF2-FA substrate, 30 pM enzyme, 2 hours at 25° C.; read-out: VIM-1 IC50
READOUT NAME: IC50 (nM)
Answers are plain numbers, in nM.

Some compounds with recorded IC50:
NCCNS(=O)(=O)c1ccc(-c2ccnc(CN)c2)c(-c2nn[nH]n2)c1S(N)(=O)=O [Example 461]    4.77
NCCNS(=O)(=O)c1ccc(-c2cccc3oc(C(=O)O)nc23)c(-c2nn[nH]n2)c1S(N)(=O)=O [Example 13]    0.412
NS(=O)(=O)c1c(S(=O)(=O)N[C@@H]2CCNC2)ccc(-c2cccc(-c3nc[nH]n3)c2)c1-c1nn[nH]n1 [Example 225]    0.0561

Please go through the list and note IC50 for each compound.
1. NCCNS(=O)(=O)c1ccc(-c2cccc3[nH]c([C@H](N)CN)nc23)c(-c2nn[nH]n2)c1S(N)(=O)=O [Example 335]
2. Nc1nc2c(-c3ccc(S(=O)(=O)NC4CC5CNC4C5)c(S(N)(=O)=O)c3-c3nnn[nH]3)cccc2s1 (centres unmarked) [Example 89]
3. Nc1ncc(-c2cccc(-c3ccc(S(=O)(=O)N[C@@H]4CCNC4)c(S(N)(=O)=O)c3-c3nnn[nH]3)n2)[nH]1 [Example 439]
4. Nc1nc2c(-c3ccc(S(=O)(=O)NCCC(N)C(F)(F)F)c(S(N)(=O)=O)c3-c3nnn[nH]3)cccc2s1 (centres unmarked) [Example 49]
5. Nc1ncccc1-c1ccc(S(=O)(=O)N[C@@H]2CCNC2)c(S(N)(=O)=O)c1-c1nn[nH]n1 [Example 209]
6. C[C@@H](CN)NS(=O)(=O)c1ccc(-c2ccnc(N)c2)c(-c2nn[nH]n2)c1S(N)(=O)=O [Example 398]
7. NCCNS(=O)(=O)c1ccc(-c2ccc3ncn(CCN)c3c2)c(-c2nn[nH]n2)c1S(N)(=O)=O [Example 348]
8. NCCNS(=O)(=O)c1ccc(-c2cccc3[nH]c(CN)nc23)c(-c2nn[nH]n2)c1S(N)(=O)=O [Example 343]

1. 0.287
2. 0.23
3. 0.629
4. 0.328
5. 0.177
6. 0.939
7. 0.536
8. 0.207

====

Biological target: IMP-1 (Serratia marcescens, UniProt P52699)
Sequence (P52699 whole entry, looked up, species assumed): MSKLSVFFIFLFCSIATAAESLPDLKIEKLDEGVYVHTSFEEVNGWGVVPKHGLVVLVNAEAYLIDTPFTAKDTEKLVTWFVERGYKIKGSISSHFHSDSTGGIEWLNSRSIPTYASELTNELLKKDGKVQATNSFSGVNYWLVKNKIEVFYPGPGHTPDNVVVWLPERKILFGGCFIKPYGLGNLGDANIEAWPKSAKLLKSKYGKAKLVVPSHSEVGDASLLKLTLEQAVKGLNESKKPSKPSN
Assay: biochemical
Assay type: biochemical
Settings: fluorescence assay, CCF2-FA substrate, 2 pM enzyme, 2 hours at 25° C.; read-out: IMP-1 IC50
Strictly below 800 pM in IC50: label 1. Otherwise: label 0.

Known results for compounds:
CN1CCN(S(=O)(=O)c2ccc(-c3cccc4sc(N)nc34)c(-c3nnn[nH]3)c2S(N)(=O)=O)CC1    label 0
Nc1ccc2cccc(-c3ccc(S(=O)(=O)N[C@@H]4CCNC4)c(S(N)(=O)=O)c3-c3nn[nH]n3)c2n1    label 1
Nc1nc2c(-c3ccc(S(=O)(=O)N4CCNCC4)c(S(N)(=O)=O)c3-c3nn[nH]n3)cccc2s1    label 1
Nc1ccc(-c2ccc(S(=O)(=O)NC[C@H]3CCCN3)c(S(N)(=O)=O)c2-c2nn[nH]n2)cn1    label 1
CN1CCC(N(C)S(=O)(=O)c2ccc(-c3cccc4sc(N)nc34)c(-c3nnn[nH]3)c2S(N)(=O)=O)C1 (stereo not drawn)    label 0

For Nc1nc2c(-c3ccc(S(=O)(=O)N4CCNCC4)c(S(N)(=O)=O)c3-c3nn[nH]n3)cccc2o1 , is the recorded IC50 below the cut-off of 800 pM?
label 0

Please let me know if NCCNS(=O)(=O)c1ccc(-c2cccc(NC[C@@H](N)CO)c2)c(-c2nn[nH]n2)c1S(N)(=O)=O shows IC50 below 800 pM.
label 0

====

Biological target: VIM-1 (Pseudomonas aeruginosa (strain ATCC 15692 / DSM 22644 / CIP 104116 / JCM 14847 / LMG 12228 / 1C / PRS 101 / PAO1))
Test: biochemical
Details: fluorescence assay, CCF2-FA substrate, 30 pM enzyme, 2 hours at 25° C.; read-out: VIM-1 IC50
Give pIC50 for every item shown.
Give bare numbers, as −log10 of the molar value.

Nc1ccc(-c2ccc(S(=O)(=O)N[C@H]3CCNC3)c(S(N)(=O)=O)c2-c2nn[nH]n2)cn1 [Example 195]    9.74
Nc1ccc(-c2ccc(S(=O)(=O)NC[C@H]3CCNC3)c(S(N)(=O)=O)c2-c2nn[nH]n2)cn1 [Example 484]    9.88
Nc1nc2c(-c3ccc(S(=O)(=O)NC4CCS(=O)(=O)CC4)c(S(N)(=O)=O)c3-c3nnn[nH]3)cccc2s1 [Example 14]    9.75
NCCNS(=O)(=O)c1ccc(-c2ccccc2NC(=O)CN)c(-c2nn[nH]n2)c1S(N)(=O)=O [Example 452]    9.00
NCCNS(=O)(=O)c1ccc(-c2cnc3cc[nH]c3c2)c(-c2nn[nH]n2)c1S(N)(=O)=O [Example 359]    9.60
Nc1ccc(-c2ccc(S(=O)(=O)N[C@H]3CNC[C@H]3N)c(S(N)(=O)=O)c2-c2nn[nH]n2)cn1 [Example 413]    9.52

# map each compound to its pIC50
1. NC[C@H](N)CNS(=O)(=O)c1ccc(-c2cccc(-c3c[nH]c(N)n3)c2)c(-c2nn[nH]n2)c1S(N)(=O)=O [Example 434]
2. CC1(NS(=O)(=O)c2ccc(-c3cccc4sc(N)nc34)c(-c3nnn[nH]3)c2S(N)(=O)=O)CCCNC1 (stereo not drawn) [Example 57]

9.47
9.45

====

Target: UniProt C7C422
Sequence (C7C422 whole entry, looked up, species assumed): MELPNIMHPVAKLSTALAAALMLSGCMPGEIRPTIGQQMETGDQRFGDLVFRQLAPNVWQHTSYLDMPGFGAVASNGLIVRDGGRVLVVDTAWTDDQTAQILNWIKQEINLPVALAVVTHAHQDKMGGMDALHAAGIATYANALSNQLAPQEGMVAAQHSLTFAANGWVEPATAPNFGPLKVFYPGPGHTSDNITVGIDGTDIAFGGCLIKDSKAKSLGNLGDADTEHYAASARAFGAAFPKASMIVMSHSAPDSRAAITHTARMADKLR
Assay: biochemical
Type: biochemical
Settings: fluorescence assay, CCF2-FA substrate, 1 pM enzyme, 2 hours at 25° C.; read-out: NDM-1 IC50
READOUT NAME: log10 IC50 (log10 of the value in nM)
Kindly note that the scale is log10 and the underlying IC50 is in nM.

Nc1nc2c(-c3ccc(S(=O)(=O)NC4CNC4)c(S(N)(=O)=O)c3-c3nn[nH]n3)cccc2[nH]1 [Example 252]    -1.37
NCc1nc2c(-c3ccc(S(=O)(=O)NC[C@H](O)CN)c(S(N)(=O)=O)c3-c3nn[nH]n3)cccc2[nH]1 [Example 299]    -0.58
NCCN1CC[C@@H](NS(=O)(=O)c2ccc(-c3ccc(N)nc3)c(-c3nn[nH]n3)c2S(N)(=O)=O)C1 [Example 500]    -1.46
NC[C@H](N)CNS(=O)(=O)c1ccc(-c2ccc(N)nc2)c(-c2nn[nH]n2)c1S(N)(=O)=O [Example 415]    -0.44
NS(=O)(=O)c1c(S(=O)(=O)N[C@@H]2CCNC2)ccc(-c2cccc3nonc23)c1-c1nn[nH]n1 [Example 238]    -0.95

I have 2 compounds here; please give me log10 IC50 for each one.
1. N[C@H]1CNC[C@H]1NS(=O)(=O)c1ccc(-c2cnc3cc[nH]c3c2)c(-c2nn[nH]n2)c1S(N)(=O)=O [Example 320]
2. Nc1ncccc1-c1ccc(S(=O)(=O)N[C@@H]2CCNC2)c(S(N)(=O)=O)c1-c1nn[nH]n1 [Example 209]

1. -1.04
2. -0.83

====

Would you kindly list Serratia marcescens MITC95 for each of these compounds?
System: Serratia marcescens expressing IMP-1 (CL5741)
Format: cell-based
Settings: IMP-1 strain CL5741, with imipenem 1 μg/ml, 95% inhibition of growth
Structures can show the parent of a compound that is named as a salt.
Give bare numbers, in µM.

CN(CCN)S(=O)(=O)c1ccc(-c2cccc3[nH]c(N)nc23)c(-c2nn[nH]n2)c1S(N)(=O)=O    1.563
Nc1nc(-c2cccc(-c3ccc(S(=O)(=O)N[C@@H]4CCNC4)c(S(N)(=O)=O)c3-c3nn[nH]n3)c2)c[nH]1    0.7813
NCCNS(=O)(=O)c1ccc(-c2cccc3[nH]c(CCN)nc23)c(-c2nn[nH]n2)c1S(N)(=O)=O    0.7813
NCCNS(=O)(=O)c1ccc(-c2cccc(C(=O)NC[C@H](N)CO)c2N)c(-c2nn[nH]n2)c1S(N)(=O)=O    1.563
Cn1c(N)nc2c(-c3ccc(S(=O)(=O)NC[C@@H](O)CN)c(S(N)(=O)=O)c3-c3nn[nH]n3)cccc21    0.7813

Look up Serratia marcescens MITC95 for the entries below, preserving their order.
1. NCc1sc(N)nc1-c1cccc(-c2ccc(S(=O)(=O)N[C@@H]3CCNC3)c(S(N)(=O)=O)c2-c2nnn[nH]2)c1
2. NCCNS(=O)(=O)c1ccc(C2CCC[C@H](N)C2)c(-c2nn[nH]n2)c1S(N)(=O)=O (stereo partly drawn)
3. NC[C@H](N)CNS(=O)(=O)c1ccc(-c2cccc3[nH]c(N)nc23)c(-c2nn[nH]n2)c1S(N)(=O)=O
4. Cn1nnc2c(-c3ccc(S(=O)(=O)N[C@H]4CCNC4)c(S(N)(=O)=O)c3-c3nn[nH]n3)cccc21
5. Nc1ccc(-c2ccc(S(=O)(=O)NC3CC(N)C3)c(S(N)(=O)=O)c2-c2nn[nH]n2)cn1 (stereo not drawn)

[0.7813, 3.125, 1.172, 3.125, 0.7813]

Batch request: Serratia marcescens MITC95 per item, same order as input.
1. NC(=O)c1nc2c(-c3ccc(S(=O)(=O)N[C@@H]4CCNC4)c(S(N)(=O)=O)c3-c3nn[nH]n3)cccc2[nH]1
2. NC[C@H](CO)NS(=O)(=O)c1ccc(-c2cccc3nc(N)[nH]c23)c(-c2nn[nH]n2)c1S(N)(=O)=O
3. NC[C@H]1CCN(S(=O)(=O)c2ccc(-c3cccc4[nH]c(N)nc34)c(-c3nn[nH]n3)c2S(N)(=O)=O)C1
4. NCc1nc2cc(-c3ccc(S(=O)(=O)N[C@@H]4CCNC4)c(S(N)(=O)=O)c3-c3nn[nH]n3)ccc2s1
5. N[C@@H]1CNC[C@@H]1NS(=O)(=O)c1ccc(-c2cccn3ccnc23)c(-c2nn[nH]n2)c1S(N)(=O)=O
6. NC[C@@H](N)CNS(=O)(=O)c1ccc(-c2cnc(N)s2)c(-c2nn[nH]n2)c1S(N)(=O)=O

[0.7813, 0.7813, 0.7813, 0.7813, 1.563, 1.563]

Count: 8. Required value per item: Serratia marcescens MITC95.
1. Nc1cc(-c2ccc(S(=O)(=O)N[C@@H]3CCNC3)c(S(N)(=O)=O)c2-c2nn[nH]n2)ccn1
2. NCC(CN)NS(=O)(=O)c1ccc(-c2cccc(-c3c[nH]c(N)n3)c2)c(-c2nn[nH]n2)c1S(N)(=O)=O
3. Nc1nc2c(-c3ccc(S(=O)(=O)N[C@H]4CCNC4)c(S(N)(=O)=O)c3-c3nn[nH]n3)cc(F)cc2[nH]1
4. CCOC(=O)c1sc(N)nc1-c1cccc(-c2ccc(S(=O)(=O)NC(CN)CN)c(S(N)(=O)=O)c2-c2nnn[nH]2)c1
5. NCC1(NS(=O)(=O)c2ccc(-c3ccc(N)nc3)c(-c3nn[nH]n3)c2S(N)(=O)=O)CCNC1 (stereo in doubt) [Example 486, dihydrochloride]
6. NC[C@H](O)CNS(=O)(=O)c1ccc(-c2ccc(N)nc2)c(-c2nn[nH]n2)c1S(N)(=O)=O
7. NC[C@H](CO)NS(=O)(=O)c1ccc(-c2ccc(N)nc2)c(-c2nn[nH]n2)c1S(N)(=O)=O
8. N[C@H](CO)CNS(=O)(=O)c1ccc(-c2cccc3[nH]cnc23)c(-c2nn[nH]n2)c1S(N)(=O)=O

1.563
3.125
1.563
3.125
0.7813
0.5208
0.7813
1.563

Dear reader, for each entry below, please note its Serratia marcescens MITC95.
1. Nc1nc2c(-c3ccc(S(=O)(=O)NC[C@@]4(N)CCNC4)c(S(N)(=O)=O)c3-c3nn[nH]n3)cccc2s1
2. C[C@@H](CN)NS(=O)(=O)c1ccc(-c2ccc(N)nc2)c(-c2nn[nH]n2)c1S(N)(=O)=O
3. Nc1nc(-c2cccc(-c3ccc(S(=O)(=O)N[C@H]4CCNC4)c(S(N)(=O)=O)c3-c3nn[nH]n3)c2)c[nH]1

1.563
1.563
0.7813
